targetDesc: Nef-ASK1 interaction (UniProt P03404+Q99683)
appliedConditions: ATCC CRL-1573 cells co-transfected with Nef-ASK1g, 48 hours; ASK-1 alone 43.15, ASK-1 + Nef (background) 22.15, control 11.0
attributeMeasured: % of Annexin V cells means apoptotic cells (%)

TPGPGVRYP [Peptide-1] = 22.45
DEVGEANN [Peptide-3] = 40.37
PVRPQVPLRP [Peptide-5] = 22.45
GENNCLLH [Peptide-2] = 24.96
LHGMEDPE [Peptide-4] = 23.0

Where do these numbers come from? They come from patent US9327009B2.
